Molecular target: Recombinant human oxytocin receptors (Homo sapiens, UniProt P30559)
Sequence (P30559 1-389): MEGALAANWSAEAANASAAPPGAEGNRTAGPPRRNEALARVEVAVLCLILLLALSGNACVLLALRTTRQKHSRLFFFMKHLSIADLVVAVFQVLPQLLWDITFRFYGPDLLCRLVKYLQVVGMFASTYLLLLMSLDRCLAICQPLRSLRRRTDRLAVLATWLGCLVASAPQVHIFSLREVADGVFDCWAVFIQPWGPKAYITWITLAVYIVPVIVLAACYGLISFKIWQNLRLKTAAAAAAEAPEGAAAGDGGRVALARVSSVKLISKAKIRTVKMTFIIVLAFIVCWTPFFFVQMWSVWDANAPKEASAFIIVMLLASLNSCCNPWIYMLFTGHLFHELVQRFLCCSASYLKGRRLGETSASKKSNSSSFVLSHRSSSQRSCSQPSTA
Test: Oxytocin receptor binding assay, [125I]-oxytocin, membrane fraction of CHO cells
Conditions: receptors expressed in CHO cells; [125I]-oxytocin displacement; read-out: inhibition constant Ki
quantity: pKi
One number for each entry, as −log10 of the molar value.

Test item CC[C@@H](C)[C@@H]1NC(=O)[C@H]([C@@H](C)CC)NC(=O)[C@@H](Cc2c[nH]c3ccccc23)NC(=O)CCSCC[C@@H](C(=O)N(C)[C@H](CO)CCCN)NC(=O)[C@H](CC(N)=O)NC1=O [IV] ; Recombinant human oxytocin receptors (Homo sapiens, UniProt P30559); reported pKi was 10.00
